molecular target: human IgG (human); assay: SPR, synthetic peptide
Ends that are not written are not given here.
Field: Kd. Provide a value for each of the binders that follow.

Record summary for DCAWHRGELVWCT [GFc-C35-3/15 (T5A, Y6W, T7H, N8R, N10E)] : reported Kd = 0.26 µM

Record summary for DCTYTNGNLIWCT [GFc-C35-3/15 (V12I)] : reported Kd = 12 µM

Record summary for DCTYHRGNLIWCT [GFc-C35-3/15 (T7H, N8R, V12I)] : reported Kd = 4.8 µM

Record summary for DCSYTNGNLVWCT [GFc-C35-3/15 (T5S)] : reported Kd = 120 µM

Record summary for DCTYHRGNLVWCT [GFc-C35-3/15 (T7H, N8R)] : reported Kd = 1.1 µM

Record summary for DCAYHRGELVWCT (not fully specified (bridges); cysteine pairing not given here) [GFc-C35-3/15 (T5A, T7H, N8R, N10E)] : reported Kd = 0.054 µM

Record summary for PDCTYTNGNLVWCTF [GFc-C35-2/16] : reported Kd = 25 µM

Record summary for DCTWTNGNLVWCT [GFc-C35-3/15 (Y6W)] : reported Kd = 50 µM

Record summary for DCTYTNGNLVWCS [GFc-C35-3/15 (T15S)] : reported Kd = 34 µM

Record summary for DCTYHNGNLVWCT [GFc-C35-3/15 (T7H)] : reported Kd = 3 µM

Record summary for DCTYTNGRLVWCT [GFc-C35-3/15 (N10R)] : reported Kd = 42 µM

Record summary for DCTFTNGNLVWCT [GFc-C35-3/15 (Y6F)] : reported Kd = 2100 µM

Record summary for RCTYTNGNLVWCT [GFc-C35-3/15 (D3R)] : reported Kd = 69 µM

Record summary for DCTYHRGELVWCT [GFc-C35-3/15 (T7H, N8R, N10E)] : reported Kd = 0.27 µM

Record summary for DCTYTNGNMVWCT [GFc-C35-3/15 (L11M)] : reported Kd = 280 µM
